Provide the reported composite z-score of each item.
- Test system: wheat germ agglutinin (Triticum aestivum), Alexa647-labelled
- Test Summary: Alexa647-WGA lectin binding to printed small molecules – biochemical, small-molecule microarray, 635/667 nm fluorescence, artefact control for SMM control-protein annotation, profiling panel (AID 1140);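 further: score merges 667 nm feature emission with signal to noise over triplicate slides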
- Measurement Parameters: WGA-A647 binding, 635 nm fluorescence, higher = more signal
# respond with the number and nothing more

Query: Return reported composite z-score; argument: COCCCNC(=O)[C@@]1(Sc2ccc(C)cc2)CC(=O)N(Cc2ccccc2C(F)(F)F)[C@@H]1c1ccc(CO)cc1I
Reply: -1.47

Query: // query composite z-score value for entry CO[C@H]1O[C@H](CO)[C@@H](OC(=O)Nc2ccccc2-c2ccccc2)[C@H](OC(=O)Nc2ccccc2)[C@H]1OC(=O)Nc1ccccc1
Reply: 0.679

Query: // lookup composite z-score for CC(C)C[C@@H]1NC(=O)[C@@]23C(=O)N[C@@H](Cc4ccccc4)C2[C@H](C)[C@@]2(C)O[C@H]2C3/C=C/C/C=C\CNC(=O)CNC1=O (some centres undefined)
Reply: 0.375

Query: Suppose we examine the compound COCCOC(=O)N1C(=O)[C@@]2(c3cc(C#CCC(C(=O)OC)C(=O)OC)ccc31)[C@H](C(=O)Nc1nc3ccccc3s1)[C@H]1C(=O)O[C@H](c3ccccc3)[C@H](c3ccccc3)N1[C@@H]2c1ccc(OCCO)cc1 ; what composite z-score value has been reported?
Reply: 0.44

Query: For the compound shown here, COC(=O)[C@@]1(Cc2ccccc2)N=C(c2ccc(OCCCO)cc2)O[C@H]1c1ccccc1CN=[N+]=[N-] , give the reported composite z-score.
Reply: 0.0777

Query: Need composite z-score of CC=CC(O)C1C=CC2C(=O)NC(=O)C2N1Nc1ccc(Cl)cc1Cl (centres undefined) , thanks.
Reply: 0.898

Query: What value of composite z-score has been recorded for this entry: CC(C)(C)N1CC=CC23O[C@@H]4/C=C\CCCOC(=O)C4[C@H]2C(=O)N(CCCCCO)[C@@H]3C1=O (some centres undefined)
Reply: -0.408

Query: Need composite z-score of COC(=O)[C@@]1(Cc2ccc(OC)cc2)[C@H]2c3cc(C(=O)N4CCCC4)n(Cc4c(CO)[nH]cc(C)c4=O)c3C[C@H]2CN1C(=O)c1ccccc1 , thanks.
Reply: 0.723

Query: Which composite z-score is reported for this compound? CN1C(=O)C2C(C1=O)C1C=C(c3ccc(CO)cc3)C2C(C2CC2)N1C (centres undefined)
Reply: -0.0515

Query: Consider the compound shown here: CCOC(=O)C1=CCC(c2cc3ccccc3[nH]2)N(CCN2CC(C(=O)OCC)=CCC2c2cc3ccccc3[nH]2)C1 (centres undefined) What is its recorded composite z-score?
Reply: 1

Query: # query: composite z-score of entry C[C@@H]1ON(c2ccc(I)cc2)[C@H](c2cccc(NC(=O)OCC3c4ccccc4-c4ccccc43)c2)[C@H]1C(=O)N1C(=O)OC[C@H]1Cc1ccccc1
Reply: 0.334

Query: Item under review: O=C1NC(=O)C2C1C=CC(C(O)c1ccc(B(O)O)cc1)N2Nc1ccc(Cl)cc1Cl (centres undefined) . Reported composite z-score?
Reply: 0.641

Query: Param item = O=C1C=C(c2ccccc2)C(=O)C2=C1CC([C@H]1Oc3ccccc3S(=O)(=O)N3CCC[C@@H]13)=CC2 ; retrieve measured composite z-score.
Reply: 0.145

Query: Consider the compound shown here: CN1C(=O)C2C=CC(C(O)c3ccc(-c4ccccc4)s3)N(NC(=O)OC(C)(C)C)C2C1=O (centres undefined) What is its recorded composite z-score?
Reply: 0.904

Query: Which measured composite z-score value corresponds to CCCCC(O)C1C=CC2C(=O)N(c3ccccc3)C(=O)C2N1Nc1ccc(C#N)cc1 (centres undefined) ?
Reply: 0.819

Query: What does the data say about its composite z-score? Entry: CN1C(=O)C2C(C3CC3)C=C3CN(Cc4cccc(Cl)c4)[C@@H]([C@@H](O)Cc4ccccc4)C3C2C1=O (some centres undefined)
Reply: 0.344

Query: Find the recorded composite z-score belonging to NC(=O)N1C(=O)C2C(C1=O)C1C=C(CCCO)C2C(c2ccc(CN3CCCC3)cc2)N1Cc1sc2ccccc2c1Cl (centres undefined) and report it.
Reply: 0.394

Query: If you can, please state the reported composite z-score value of COC(=O)[C@@]1(Cc2ccc(F)cc2)[C@H]2c3cc(C(=O)N4CCCC4)n(Cc4ccccn4)c3C[C@H]2CN1C(=O)c1ccccc1 .
Reply: -0.128

Query: # lookup: composite z-score of O=C1N(Cc2ccccc2)c2ccccc2C[C@@]12COC(c1ccc(OCCCO)cc1)=N2
Reply: 0.98

Query: So what does the record say about composite z-score for COc1ccc([Si](C)(C)[C@H]2[C@H](CCO)O[C@@]3(C(=O)N(Cc4ccc(NC(=O)[C@H](C)O)cc4)c4ccccc43)[C@@H]2C)cc1 ?
Reply: 0.355

Query: Could you tell me which composite z-score is on file for Cc1ccc(F)cc1S(=O)(=O)N[C@H]1CCN(Cc2ccc(OC(C)C)cc2)C1 ?
Reply: -0.6

Query: Param item = CC(C)N1C(=O)C[C@@](C(=O)NCCN2CCOCC2)(c2ccc([N+](=O)[O-])cc2)[C@H]1c1ccc(CO)cc1 ; retrieve measured composite z-score.
Reply: 0.869

Query: Quick check: composite z-score of O=C1[C@@H]2[C@@H](CC(COc3ccccc3)=C([C@H](O)CCc3ccccc3)[C@@H]2CO)C(=O)N1Cc1ccccc1 ?
Reply: 0.124

Query: Dear colleague, I am looking for the recorded composite z-score of the following compound: C=CCC(OC(C)=O)[C@@H]1[C@@H](N(Cc2ccc(-c3ccccc3)cc2)C(=O)c2cccc3ccccc23)c2cc(OCCCO)ccc2N1C(=O)Cc1ccc(OC)cc1 (some centres undefined)
Reply: 0.175

Query: Any idea what its composite z-score is? The compound is CN(C)CCCC[C@@H]1NC(=O)[C@H]2C[C@@H](C(=O)O)[C@@H](c3ccc(O)cc3)N2C1=O
Reply: 1.65

Query: Return reported composite z-score; argument: CC(C)NC(=O)[C@@H]1c2ccccc2C(=O)N(Cc2ccccc2C(F)(F)F)[C@H]1c1ccc(CO)cc1
Reply: 0.145

Query: Endpoint output: composite z-score of CC(C)C(CO)N1C(=O)[C@@H]2C3C(=O)OCCC/C=C\[C@H]3OC23C=CCN(Cc2ccccc2)C(=O)[C@@H]13 (some centres undefined) . Value?
Reply: -1.2

Query: Quick one: composite z-score for C=C(C)[C@@H]1CC=C(C(O)C2C=CC3C(=O)N(C)C(=O)C3N2Nc2ccc([N+](=O)[O-])cc2[N+](=O)[O-])CC1 (some centres undefined) ?
Reply: 0.799

Query: Suppose we examine the compound C=CCOC(=O)[C@@H]1[C@H]2C(=O)O[C@H](c3ccccc3)[C@H](c3ccccc3)N2[C@H](c2ccc(OCCOC(=O)[C@H]3C[C@H]4C(=O)NCC(=O)N4[C@H]3c3cccc(OCCO)c3)cc2)[C@@]12C(=O)Nc1ccc(I)cc12 ; what composite z-score value has been reported?
Reply: 0.734

----------
- Test Summary: growth of efflux-deficient E. coli DRC39 – strain DRC39, OD650, 48 h, E. coli filamentation inducers, primary screen (AID 1179);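 further: screen aims at cell division blockers that make cells filament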
- Measurement Parameters: E. coli DRC39 delta-acrAB growth, higher = more signal, called active from +8 up or from −8 down
Values of z-score greater than or equal to -0.5 map to y; values below map to n.

Query: Has O=C(NCC(O)CO)[C@@]1(CCS(=O)(=O)c2ccccc2)N=C(c2ccc(OCCCO)cc2)O[C@H]1c1ccccc1 (stereo partly drawn) a recorded z-score greater than or equal to -0.5?
Reply: n

Query: Does the compound COc1ccc(CCNC(=O)[C@@H]2c3ccccc3C(=O)N(Cc3ccccc3OC)[C@H]2c2ccc(CO)cc2)cc1 have recorded z-score that is -0.5 or more?
Reply: y

Query: State whether the measured z-score reaches -0.5, counting equality as reaching it, for CN(C)CCCC[C@@H]1NC(=O)[C@H]2C[C@@H](C(=O)O)[C@@H](c3ccc(O)cc3)N2C1=O
Reply: y

Query: Is z-score at least -0.5? Consider C=CCC(OC(C)=O)[C@@H]1[C@@H](N(Cc2cccc3ccccc23)C(=O)Cc2ccc(OC)cc2)c2cc(OCCCO)ccc2N1C(=O)c1ccc2ccccc2c1 (stereo partly drawn)
Reply: y

Query: Evaluate O=C1C=C(c2ccccc2)C(=O)C2=C1CC([C@H]1Oc3ccccc3S(=O)(=O)N3CCC[C@@H]13)=CC2 : z-score at minimum -0.5?
Reply: n

Query: Is the recorded value of z-score equal to or greater than -0.5 for this compound? COCCCNC(=O)[C@@]1(CCC(=O)OC(C)(C)C)COC(c2ccc(OCCCO)cc2)=N1
Reply: y

Query: Can CC[C@@H]1C=C(C(=O)O)[C@H](c2ccc(OC)cc2)N1S(=O)(=O)c1ccc(C)cc1 be said to have z-score at or above -0.5?
Reply: n

Query: Quick check: does Cc1ccc(S[C@]2(C(=O)NCCCN(C)C)CC(=O)N(C3Cc4ccccc4C3)[C@@H]2c2ccc(CO)cc2I)cc1 have z-score greater than or equal to -0.5?
Reply: n
